# Tested System: D(3) dopamine receptor (Homo sapiens, UniProt P35462)
# Sequence (P35462 whole entry): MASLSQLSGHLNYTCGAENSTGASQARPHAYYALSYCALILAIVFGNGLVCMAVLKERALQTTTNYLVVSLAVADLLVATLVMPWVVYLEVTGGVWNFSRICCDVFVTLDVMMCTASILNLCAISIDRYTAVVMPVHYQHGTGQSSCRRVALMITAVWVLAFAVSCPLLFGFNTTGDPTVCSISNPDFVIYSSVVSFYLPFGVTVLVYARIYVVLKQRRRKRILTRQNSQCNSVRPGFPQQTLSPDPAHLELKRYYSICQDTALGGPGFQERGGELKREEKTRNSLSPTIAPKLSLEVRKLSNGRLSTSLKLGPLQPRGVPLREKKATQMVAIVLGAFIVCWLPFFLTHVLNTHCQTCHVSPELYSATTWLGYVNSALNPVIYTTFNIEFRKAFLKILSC
pKi: −log10 of the molar value.

| Molecule | pKi |
| --- | --- |
| CCCCN1CCCC1CNC(=O)c1cc(C#N)c2ccccc2c1OC (stereo unspecified) [NAFADOTRIDE] | 9.09 |

* * *

Overview of recorded pKi for various molecules
# Tested System: UniProt:P35462
# Test Details: biochemical
pKi: −log10 of the molar value.

| Molecule | pKi |
| --- | --- |
| CCCN[C@@H]1CCc2c(OC)cccc2[C@@H]1C | 7.15 |
| CCN(CC)CCNC(=O)c1cc(Cl)c(N)cc1OC [METOCLOPRAMIDE] | 7.57 |
| CCCN(CCC)C1CCc2cc3c(cc2C1)OCC3 (centres undefined) | 7.89 |
| OC1(c2ccc(Cl)cc2)CCN(Cc2c[nH]c3ccccc23)CC1 | 7.22 |
